Here, compounds appear alongside Ki reported for Coagulation factor IX (Homo sapiens, UniProt P00740) in the literature.

Use these answered entries as a reference point.
chemicalStructure	measuredOn	Ki
COC(=O)Nc1ccc2c(c1)NC(=O)CCCC[C@H](NC(=O)/C=C/c1cc(Cl)ccc1-n1cnnn1)c1nc-2c[nH]1	Coagulation factor IX (Homo sapiens, UniProt P00740)	> 27.1 µM
COC(=O)Nc1ccc(-c2c[nH]c([C@H](Cc3ccccc3)NC(=O)/C=C/c3cc(Cl)ccc3-n3cnnn3)n2)cc1	Coagulation factor IX (Homo sapiens, UniProt P00740)	> 60 µM

Now for another entry.
Using Coagulation factor IX (Homo sapiens, UniProt P00740) as the test system, report measured Ki of Nc1nccc2cc(N[C@H]3C(=O)NCc4cccc(c4)NC(=O)CCCc4ccc3cc4)ccc12 .
> 35 µM

---

Multiple publications report Ki for Coagulation factor IX (Homo sapiens); what follows is a combined list.
readoutKind: Ki (nM)

compound	Ki [nM]
N=C(N)c1ccc2ccn(C(Cc3ccccc3)C(=O)Nc3ccc(-n4cnc5ccccc54)cc3F)c2c1 (stereo not given)	300
Cc1ccc(O)c2c3c(nn12)CCC(C)(NC(=O)c1ccc(-n2ccnn2)cc1)C3 (stereo not given)	462
N=C(N)c1ccc2[nH]cc(C(Cc3ccccc3)C(=O)Nc3ccc(-n4cnc(-c5ccccc5)c4)cc3)c2c1 (stereo not given)	270

I. NC(N)=Nc1nccc2c(Cl)cc(-c3cccc(C(=O)O)c3)cc12
II. Cc1cc2nc([C@@H](CNC(=O)c3ccc(-n4cnnc4)cc3Cl)c3ccccc3)[nH]c2cc1C
Quick one: lower Ki, I or II ? Write down the label of the entry you select.
II
(II: 16 nM, I: 1240 nM)

---

Assembled from different publications: Ki for Coagulation factor IX (Homo sapiens, UniProt P00740).

Here are 2 molecules together with their reported answers.
chemicalStructure	readoutKind	recordedValue
N=C(N)c1ccc2[nH]cc([C@@H](Cc3ccccc3)C(=O)Nc3ccc(-n4cnc5ccccc54)cc3F)c2c1	Ki	0.019 µM
Cc1cc2nc(CCNC(=O)c3ccccc3-n3cnnc3)[nH]c2cc1C	Ki	> 145 µM

Item NC[C@H]1CC[C@H](C(=O)N[C@@H](Cc2ccccc2)c2cc(-c3ccc4[nH]nc(O)c4c3)ccn2)CC1 : provide Ki
> 34.9 µM

Input Cl.NCCCC[C@H](NC(=O)c1ccc(F)c(F)c1)C(=O)c1noc(Cc2ccc(OCCc3ccc(Cl)c(Cl)c3)cc2)n1 , output reported Ki.
> 150 µM

---

pKi: −log10 of the molar value.
Collected set of pKi measured with Coagulation factor IX (Homo sapiens) across studies.
readoutKind: pKi

Worked examples follow.
compound	pKi
COC(=O)[C@@H]1CCCCC1NC(=O)[C@@H](Cc1ccccc1)c1csc2ccc(C(=N)N)cc12 (stereo not given in full)	6.85
N=C(N)c1ccc2scc(C(Cc3ccc(N)cc3)C(=O)Nc3ccc(-n4cnc5ccccc54)cc3)c2c1.O=C(O)C(F)(F)F (stereo not given)	7.13
Cc1cc(C(=O)Nc2ccc(-c3ccccc3S(N)(=O)=O)cc2)n(-c2cccc(C(=N)N)c2)n1	5.72
N=C(N)c1ccc2[nH]cc(C(Cc3ccccc3)C(=O)NCc3cccc(C(=O)Nc4nc5ccccc5[nH]4)c3)c2c1 (stereo not given)	5.72
N=C(N)c1ccc2scc(C(Cc3ccccc3)C(=O)Nc3ccc4ncsc4c3)c2c1 (single isomer, unassigned)	4.85

P. Oc1c(-c2nc3cc[nH]cc-3n2)n[nH]c1-c1ccccc1
Q. Cc1ccc(O)c2c3c(nn12)CCC(C)(NC(=O)c1ccc(-n2nccn2)cc1Cl)C3 (stereo not given)
R. Cc1cc2nc(CCNC(=O)c3ccc(-n4cncn4)cc3Cl)[nH]c2cc1C
S. N=C(N)c1ccc2[nH]cc(C(Cc3ccc(NC(=O)c4ccccc4)cc3)C(=O)Nc3ccc(-n4cnc5ccccc54)cc3)c2c1 (stereo not given)
Please give the order of these compounds when sorted by pKi, largest value leading. Answer format: the labels, ordered as requested.
S, R, Q, P
(S: 6.57, R: 5.67, Q: 4.52, P: 3.96)
